Settings: in ethanol, 323.15 K
Each entry below lists one item and its recorded solubility (mole fraction) value.
Please give only the number in your answer, with no unit.

Field: example entries. Status: answers known.
COc1ccc(-c2cc(-c3ccc(O)c(OC)c3)c(C#N)c(=O)[nH]2)cc1
0.000899
COc1cc(-c2cc(-c3ccc(Br)cc3)[nH]c(=O)c2C#N)ccc1O
0.000919

Which solubility (mole fraction) reading was recorded for the compound COc1cc(-c2cc(-c3ccc(O)cc3)[nH]c(=O)c2C#N)ccc1O ?
0.000976

For COc1cc(-c2cc(-c3ccc(Cl)cc3)[nH]c(=O)c2C#N)ccc1O , what is its reported solubility (mole fraction)?
0.000948

Fill in: solubility (mole fraction) of COc1cc(-c2cc(-c3ccc(F)cc3)[nH]c(=O)c2C#N)ccc1O is ___
0.001

====

Entries and their solubility (mole fraction)
Conditions: in n-butanol, 323.15 K
Just the number, please, no unit after it.

# example entries with known answers
COc1cc(-c2cc(-c3ccc(Br)cc3)[nH]c(=O)c2C#N)ccc1O
0.000614
COc1cc(-c2cc(-c3ccc(F)cc3)[nH]c(=O)c2C#N)ccc1O
0.000835
COc1cc(-c2cc(-c3ccc(O)cc3)[nH]c(=O)c2C#N)ccc1O
0.000794
COc1cc(-c2cc(-c3ccc(Cl)cc3)[nH]c(=O)c2C#N)ccc1O
0.000672

State the recorded solubility (mole fraction) for this entry: COc1ccc(-c2cc(-c3ccc(O)c(OC)c3)c(C#N)c(=O)[nH]2)cc1
0.000565

====

Listed here are compounds together with their documented solubility (mole fraction).
Details: in 1,4-dioxane, 308.15 K
The reply should be a number, written without any unit.

These solved cases illustrate the format of a correct answer.
COc1cc(-c2cc(-c3ccc(F)cc3)[nH]c(=O)c2C#N)ccc1O
0.00173
COc1cc(-c2cc(-c3ccc(Br)cc3)[nH]c(=O)c2C#N)ccc1O
0.00155
COc1cc(-c2cc(-c3ccc(Cl)cc3)[nH]c(=O)c2C#N)ccc1O
0.00163
COc1cc(-c2cc(-c3ccc(O)cc3)[nH]c(=O)c2C#N)ccc1O
0.00169

Now examine the next entry.
Entry under review: COc1ccc(-c2cc(-c3ccc(O)c(OC)c3)c(C#N)c(=O)[nH]2)cc1 . Reported solubility (mole fraction)?
0.00162

====

Conditions: in chloroform, 308.15 K
Listed below: solubility (mole fraction) values for each entry.
Answer with a number only.

COc1cc(-c2cc(-c3ccc(O)cc3)[nH]c(=O)c2C#N)ccc1O
0.00137
COc1cc(-c2cc(-c3ccc(F)cc3)[nH]c(=O)c2C#N)ccc1O
0.00145
COc1cc(-c2cc(-c3ccc(Br)cc3)[nH]c(=O)c2C#N)ccc1O
0.00123

Endpoint output: solubility (mole fraction) of COc1cc(-c2cc(-c3ccc(Cl)cc3)[nH]c(=O)c2C#N)ccc1O . Value?
0.00129

# solubility (mole fraction) lookup, item COc1ccc(-c2cc(-c3ccc(O)c(OC)c3)c(C#N)c(=O)[nH]2)cc1
0.0012

====

Settings: in methanol, 328.15 K
measuredQuantity: solubility (mole fraction)
Please respond with just the number, no unit label.

COc1cc(-c2cc(-c3ccc(Br)cc3)[nH]c(=O)c2C#N)ccc1O
0.000722

Value lookup for solubility (mole fraction); key = COc1cc(-c2cc(-c3ccc(Cl)cc3)[nH]c(=O)c2C#N)ccc1O
0.000732

Form field: reported solubility (mole fraction) of COc1cc(-c2cc(-c3ccc(F)cc3)[nH]c(=O)c2C#N)ccc1O
0.00079

Reported solubility (mole fraction), molecule COc1cc(-c2cc(-c3ccc(O)cc3)[nH]c(=O)c2C#N)ccc1O : ____
0.000754

Entry under review: COc1ccc(-c2cc(-c3ccc(O)c(OC)c3)c(C#N)c(=O)[nH]2)cc1 . Reported solubility (mole fraction)?
0.000659

====

Conditions: in 1,4-dioxane, 323.15 K
Measured solubility (mole fraction), listed per entry.
// response body must contain only the number

I have this compound here, COc1cc(-c2cc(-c3ccc(O)cc3)[nH]c(=O)c2C#N)ccc1O , and I need its recorded solubility (mole fraction).
0.00195

Look at this compound and give its reported solubility (mole fraction). COc1ccc(-c2cc(-c3ccc(O)c(OC)c3)c(C#N)c(=O)[nH]2)cc1
0.00189

What value of measured solubility (mole fraction) is listed for COc1cc(-c2cc(-c3ccc(Br)cc3)[nH]c(=O)c2C#N)ccc1O ?
0.00177

If you can, please state the reported solubility (mole fraction) value of COc1cc(-c2cc(-c3ccc(Cl)cc3)[nH]c(=O)c2C#N)ccc1O .
0.00189

Which solubility (mole fraction) reading was recorded for the compound COc1cc(-c2cc(-c3ccc(F)cc3)[nH]c(=O)c2C#N)ccc1O ?
0.00202

====

Details: in 1,4-dioxane, 318.15 K
measuredQuantity: solubility (mole fraction)
Please state the value as a number alone, without comment.

Below, 4 molecules whose answers are already recorded.
COc1ccc(-c2cc(-c3ccc(O)c(OC)c3)c(C#N)c(=O)[nH]2)cc1
0.0018
COc1cc(-c2cc(-c3ccc(O)cc3)[nH]c(=O)c2C#N)ccc1O
0.00187
COc1cc(-c2cc(-c3ccc(Br)cc3)[nH]c(=O)c2C#N)ccc1O
0.0017
COc1cc(-c2cc(-c3ccc(Cl)cc3)[nH]c(=O)c2C#N)ccc1O
0.00181

Consider the additional molecule presented here.
Please give the measured solubility (mole fraction) for this molecule: COc1cc(-c2cc(-c3ccc(F)cc3)[nH]c(=O)c2C#N)ccc1O
0.00193

====

Details: in methanol, 308.15 K
measuredQuantity: solubility (mole fraction)
Lab note: jot down the number only; don't add units.

COc1cc(-c2cc(-c3ccc(Br)cc3)[nH]c(=O)c2C#N)ccc1O
0.000587
COc1cc(-c2cc(-c3ccc(O)cc3)[nH]c(=O)c2C#N)ccc1O
0.000635
COc1ccc(-c2cc(-c3ccc(O)c(OC)c3)c(C#N)c(=O)[nH]2)cc1
0.000532
COc1cc(-c2cc(-c3ccc(Cl)cc3)[nH]c(=O)c2C#N)ccc1O
0.000629

Which solubility (mole fraction) value is on record for COc1cc(-c2cc(-c3ccc(F)cc3)[nH]c(=O)c2C#N)ccc1O ?
0.000658

====

Conditions: in n-propanol, 318.15 K
Use TRUE when the recorded solubility (mole fraction) is no lower than 0.001; use FALSE when it is lower.

COc1ccc(-c2cc(-c3ccc(O)c(OC)c3)c(C#N)c(=O)[nH]2)cc1
FALSE

Is solubility (mole fraction) at least 0.001? Consider COc1cc(-c2cc(-c3ccc(O)cc3)[nH]c(=O)c2C#N)ccc1O
TRUE

Could you verify whether the entry COc1cc(-c2cc(-c3ccc(Br)cc3)[nH]c(=O)c2C#N)ccc1O shows solubility (mole fraction) of no less than 0.001?
FALSE

# bool: solubility (mole fraction) of COc1cc(-c2cc(-c3ccc(F)cc3)[nH]c(=O)c2C#N)ccc1O >= 0.001
TRUE

====

Collected solubility (mole fraction) values appear next to each entry.
Conditions: in chloroform, 318.15 K
Kindly provide the number alone.

Before answering, review these 4 worked examples.
COc1cc(-c2cc(-c3ccc(O)cc3)[nH]c(=O)c2C#N)ccc1O
0.00151
COc1cc(-c2cc(-c3ccc(Br)cc3)[nH]c(=O)c2C#N)ccc1O
0.00133
COc1ccc(-c2cc(-c3ccc(O)c(OC)c3)c(C#N)c(=O)[nH]2)cc1
0.00129
COc1cc(-c2cc(-c3ccc(F)cc3)[nH]c(=O)c2C#N)ccc1O
0.00158

Now for a further compound.
# query: solubility (mole fraction) of entry COc1cc(-c2cc(-c3ccc(Cl)cc3)[nH]c(=O)c2C#N)ccc1O
0.00141

====

Property: solubility (mole fraction); scope: individual molecules
Conditions: in ethyl acetate, 298.15 K
Reply: number alone, nothing else.

Solved entries:
COc1cc(-c2cc(-c3ccc(O)cc3)[nH]c(=O)c2C#N)ccc1O
0.00106
COc1cc(-c2cc(-c3ccc(Br)cc3)[nH]c(=O)c2C#N)ccc1O
0.00109
COc1cc(-c2cc(-c3ccc(F)cc3)[nH]c(=O)c2C#N)ccc1O
0.00133
COc1ccc(-c2cc(-c3ccc(O)c(OC)c3)c(C#N)c(=O)[nH]2)cc1
0.00107

As a next step, examine the molecule that follows.
Give the measured solubility (mole fraction) of COc1cc(-c2cc(-c3ccc(Cl)cc3)[nH]c(=O)c2C#N)ccc1O .
0.00123

====

Conditions: in ethanol, 303.15 K
In this section we review reported solubility (mole fraction) values for a set of compounds.
Just the number, please.

Please review the following examples before continuing.
COc1ccc(-c2cc(-c3ccc(O)c(OC)c3)c(C#N)c(=O)[nH]2)cc1
0.000724
COc1cc(-c2cc(-c3ccc(Br)cc3)[nH]c(=O)c2C#N)ccc1O
0.00075
COc1cc(-c2cc(-c3ccc(O)cc3)[nH]c(=O)c2C#N)ccc1O
0.000786
COc1cc(-c2cc(-c3ccc(F)cc3)[nH]c(=O)c2C#N)ccc1O
0.000809

Give the measured solubility (mole fraction) of COc1cc(-c2cc(-c3ccc(Cl)cc3)[nH]c(=O)c2C#N)ccc1O .
0.00077
